# study.system: Adenosine kinase (Homo sapiens)
# Sequence (P55263 whole entry): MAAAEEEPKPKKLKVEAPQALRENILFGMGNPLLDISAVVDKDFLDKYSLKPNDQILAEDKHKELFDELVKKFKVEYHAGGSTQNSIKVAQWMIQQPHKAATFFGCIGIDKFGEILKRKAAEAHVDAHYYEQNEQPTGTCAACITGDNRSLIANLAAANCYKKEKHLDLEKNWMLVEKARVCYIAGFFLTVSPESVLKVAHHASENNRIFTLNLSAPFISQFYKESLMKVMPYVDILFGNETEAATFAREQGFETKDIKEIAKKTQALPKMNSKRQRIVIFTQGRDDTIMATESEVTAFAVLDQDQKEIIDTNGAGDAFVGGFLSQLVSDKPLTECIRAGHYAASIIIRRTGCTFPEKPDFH
# method.notes: Inhibitory activity against human recombinant adenosine kinase
experimental.endpoint: IC50 (nM)
Number only, in nM; omit the unit.

Known results for compounds:
1. COC[C@@H]1O[C@@H](n2cc(-c3ccccc3)c3c(Nc4ccccc4)ncnc32)[C@H](O)[C@@H]1O (single isomer, unassigned)
15
2. COC[C@@H]1O[C@@H](n2cc(I)c3c(N)ncnc32)[C@H](O)[C@@H]1O (single isomer, unassigned)
2000
3. Nc1ncnc2c1c(Br)cn2[C@@H]1O[C@@H](CO)[C@@H](O)[C@H]1O (single isomer, unassigned)
280

So for NC[C@@H]1O[C@@H](n2nc(-c3ccccc3)c3c(Nc4ccccc4)ncnc32)[C@H](O)[C@@H]1O (single isomer, unassigned) , the logged IC50 turned out to be 42

So for NC[C@@H]1O[C@@H](n2cc(I)c3c(N)ncnc32)[C@H](O)[C@@H]1O (single isomer, unassigned) , the logged IC50 turned out to be 16

So for C[C@H]1O[C@@H](n2cc(-c3ccccc3)c3c(Nc4ccc(F)cc4)ncnc32)[C@H](O)[C@@H]1O (single isomer, unassigned) , the logged IC50 turned out to be 5

====

# study.system: Adenosine kinase (Homo sapiens)
# method.notes: Inhibitory activity against human recombinant adenosine kinase
A collection of molecules and their measured IC50
Number only, in nM; omit the unit.

So for NC[C@@H]1O[C@@H](n2cnc3c(N)ncnc32)[C@H](O)[C@@H]1O (single isomer, unassigned) , the logged IC50 turned out to be 10000

So for NC[C@@H]1O[C@@H](n2nc(Br)c3c(N)ncnc32)[C@H](O)[C@@H]1O (single isomer, unassigned) , the logged IC50 turned out to be 170

So for OC[C@@H]1O[C@@H](n2nc(-c3ccccc3)c3c(Nc4ccccc4)ncnc32)[C@H](O)[C@@H]1O (single isomer, unassigned) , the logged IC50 turned out to be 2.8

====

# study.system: Adenosine kinase (Homo sapiens)
# method.notes: Inhibitory activity against human recombinant adenosine kinase
A collection of compounds and their measured IC50
# answer = value followed by unit

Known results for compounds:
1) Nc1ncnc2c1c(Br)nn2[C@@H]1O[C@@H](CO)[C@@H](O)[C@H]1O (single isomer, unassigned)
10000 nM
2) NC[C@H]1O[C@@H](n2nc(Br)c3c(N)ncnc32)[C@H](O)[C@@H]1O (single isomer, unassigned)
4 nM
3) OC[C@@H]1O[C@@H](n2cc(-c3ccccc3)c3c(Nc4ccc(F)cc4)ncnc32)[C@H](O)[C@@H]1O (single isomer, unassigned)
1.5 nM

Please find the next compound below.
Lab entry: Adenosine kinase (Homo sapiens) assay, compound Nc1ncnc2c1ncn2[C@@H]1O[C@@H](CO)[C@@H](O)[C@H]1O (single isomer, unassigned) , IC50 = 1000 nM
